Entries and their IC50
# Assay target: STAT5b (Homo sapiens, UniProt P51692)
# Sequence (P51692 1-787): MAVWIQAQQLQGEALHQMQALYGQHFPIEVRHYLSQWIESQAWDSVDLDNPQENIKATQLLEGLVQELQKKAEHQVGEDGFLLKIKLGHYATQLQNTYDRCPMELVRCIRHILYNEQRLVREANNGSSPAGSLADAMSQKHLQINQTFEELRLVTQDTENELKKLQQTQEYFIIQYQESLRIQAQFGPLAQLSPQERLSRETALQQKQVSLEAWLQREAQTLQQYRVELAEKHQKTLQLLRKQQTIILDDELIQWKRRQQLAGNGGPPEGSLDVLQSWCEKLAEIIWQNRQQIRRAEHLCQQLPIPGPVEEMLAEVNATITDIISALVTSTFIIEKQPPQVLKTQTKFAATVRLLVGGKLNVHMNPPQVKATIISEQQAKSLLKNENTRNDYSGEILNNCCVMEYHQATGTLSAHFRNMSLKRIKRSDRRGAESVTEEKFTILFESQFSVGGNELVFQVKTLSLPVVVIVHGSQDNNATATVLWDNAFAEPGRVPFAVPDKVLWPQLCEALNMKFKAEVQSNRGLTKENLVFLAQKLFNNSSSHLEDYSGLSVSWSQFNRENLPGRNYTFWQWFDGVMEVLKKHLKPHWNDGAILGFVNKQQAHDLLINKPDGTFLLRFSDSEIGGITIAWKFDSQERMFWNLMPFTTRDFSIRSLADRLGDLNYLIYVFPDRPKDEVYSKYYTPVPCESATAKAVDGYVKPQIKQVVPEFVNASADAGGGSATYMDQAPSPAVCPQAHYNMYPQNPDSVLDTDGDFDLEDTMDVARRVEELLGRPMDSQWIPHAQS
Metric name: IC50 (µM)

1) O=P(O)(O)Oc1cccc(OP(=O)(O)O)c1F [compound 7] = 15.5
2) O=C(CNc1ccc(C(=O)Nc2ccc(Oc3ccccc3)cc2)cc1)NCc1cc(C(F)(F)P(=O)(O)O)c(F)c(C(F)(F)P(=O)(O)O)c1 [compound 10] = 3.7
3) O=P(O)(O)Oc1ccc(F)c(OP(=O)(O)O)c1 [compound 6] = 55.8
4) CC(=O)NCc1cc(OP(=O)(O)O)cc(OP(=O)(O)O)c1 [compound 3] = 38.1
5) O=P(O)(O)C(F)(F)c1cccc(C(F)(F)P(=O)(O)O)c1F [compound 9] = 38.4
6) CC(=O)NCc1ccc(OP(=O)(O)O)cc1OP(=O)(O)O [compound 2] = 85.7
7) O=C(CNc1ccc(C(=O)Nc2ccc(Oc3ccccc3)cc2)cc1)NCc1cc(OP(=O)(O)O)cc(OP(=O)(O)O)c1 [compound 5] = 3.1
8) O=P(O)(O)Oc1cccc(OP(=O)(O)O)c1 [compound 1, 1,3-Phenylene bis(dihydrogen phosphate)] = 41.6
9) O=C(COc1ccc(C(=O)Nc2ccc(Oc3ccccc3)cc2)cc1)NCc1cc(OP(=O)(O)O)cc(OP(=O)(O)O)c1 [compound 4] = 1.9

====

# Assay target: UniProt:P42229
# Sequence (P42229 1-794): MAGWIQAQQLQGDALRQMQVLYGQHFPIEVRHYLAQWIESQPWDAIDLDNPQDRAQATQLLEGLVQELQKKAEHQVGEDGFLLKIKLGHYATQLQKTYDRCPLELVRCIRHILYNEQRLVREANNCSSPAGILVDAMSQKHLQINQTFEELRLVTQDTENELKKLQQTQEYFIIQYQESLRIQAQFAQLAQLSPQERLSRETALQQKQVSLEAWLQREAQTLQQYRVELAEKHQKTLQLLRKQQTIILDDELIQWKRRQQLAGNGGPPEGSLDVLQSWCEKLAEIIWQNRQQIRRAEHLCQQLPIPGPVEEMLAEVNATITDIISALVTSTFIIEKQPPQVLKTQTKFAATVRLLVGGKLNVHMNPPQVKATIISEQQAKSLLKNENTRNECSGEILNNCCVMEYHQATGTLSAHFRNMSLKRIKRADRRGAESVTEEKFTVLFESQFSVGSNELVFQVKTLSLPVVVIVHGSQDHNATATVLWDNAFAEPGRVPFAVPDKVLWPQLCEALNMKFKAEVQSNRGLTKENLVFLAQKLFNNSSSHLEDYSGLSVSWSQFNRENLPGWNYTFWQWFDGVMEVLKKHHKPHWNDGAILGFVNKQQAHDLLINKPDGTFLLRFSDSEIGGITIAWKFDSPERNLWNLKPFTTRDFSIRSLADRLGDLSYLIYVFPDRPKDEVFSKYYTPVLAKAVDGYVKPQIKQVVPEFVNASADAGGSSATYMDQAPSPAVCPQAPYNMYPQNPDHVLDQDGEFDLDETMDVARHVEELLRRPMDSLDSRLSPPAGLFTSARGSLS
Entries and their IC50
Metric name: IC50 (µM)

1) O=P(O)(O)Oc1cccc(OP(=O)(O)O)c1F = 21.8
2) O=C(CNc1ccc(C(=O)Nc2ccc(Oc3ccccc3)cc2)cc1)NCc1cc(OP(=O)(O)O)cc(OP(=O)(O)O)c1 = 6.4
3) O=P(O)(O)Oc1ccc(F)c(OP(=O)(O)O)c1 = 59.4
4) O=P(O)(O)Oc1cccc(OP(=O)(O)O)c1 [compound 1, 1,3-Phenylene bis(dihydrogen phosphate)] = 47.2
5) O=C(COc1ccc(C(=O)Nc2ccc(Oc3ccccc3)cc2)cc1)NCc1cc(OP(=O)(O)O)cc(OP(=O)(O)O)c1 = 5.2
6) CC(=O)NCc1cc(OP(=O)(O)O)cc(OP(=O)(O)O)c1 = 73.8

====

# Assay target: STAT1 (Homo sapiens, UniProt P42224)
# Sequence (P42224 1-750): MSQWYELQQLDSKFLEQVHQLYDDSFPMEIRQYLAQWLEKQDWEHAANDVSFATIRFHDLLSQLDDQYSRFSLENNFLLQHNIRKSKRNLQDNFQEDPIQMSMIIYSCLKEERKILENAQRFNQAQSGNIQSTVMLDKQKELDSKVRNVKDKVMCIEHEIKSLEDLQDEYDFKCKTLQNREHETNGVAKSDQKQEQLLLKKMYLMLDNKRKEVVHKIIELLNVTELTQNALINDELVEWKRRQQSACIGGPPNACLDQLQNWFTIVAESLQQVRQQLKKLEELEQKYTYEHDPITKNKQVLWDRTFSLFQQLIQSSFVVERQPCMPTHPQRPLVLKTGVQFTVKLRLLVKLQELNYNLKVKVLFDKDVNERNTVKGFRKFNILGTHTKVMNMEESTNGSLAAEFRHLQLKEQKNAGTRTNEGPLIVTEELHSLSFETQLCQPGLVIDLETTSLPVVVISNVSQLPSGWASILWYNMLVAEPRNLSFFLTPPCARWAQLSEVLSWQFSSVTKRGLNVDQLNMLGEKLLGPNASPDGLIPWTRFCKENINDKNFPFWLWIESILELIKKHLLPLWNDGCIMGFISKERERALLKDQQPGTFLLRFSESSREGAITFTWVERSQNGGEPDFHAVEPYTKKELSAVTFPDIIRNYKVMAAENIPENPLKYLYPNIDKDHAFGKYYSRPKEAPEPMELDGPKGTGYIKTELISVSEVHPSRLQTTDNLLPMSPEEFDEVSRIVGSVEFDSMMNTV
Metric name: Ki (µM)

1. O=C(CNc1ccc(C(=O)Nc2ccc(Oc3ccccc3)cc2)cc1)NCc1cc(OP(=O)(O)O)cc(OP(=O)(O)O)c1 = 34.6

====

# Assay target: STAT1 (Homo sapiens, UniProt P42224)
# Sequence (P42224 1-750): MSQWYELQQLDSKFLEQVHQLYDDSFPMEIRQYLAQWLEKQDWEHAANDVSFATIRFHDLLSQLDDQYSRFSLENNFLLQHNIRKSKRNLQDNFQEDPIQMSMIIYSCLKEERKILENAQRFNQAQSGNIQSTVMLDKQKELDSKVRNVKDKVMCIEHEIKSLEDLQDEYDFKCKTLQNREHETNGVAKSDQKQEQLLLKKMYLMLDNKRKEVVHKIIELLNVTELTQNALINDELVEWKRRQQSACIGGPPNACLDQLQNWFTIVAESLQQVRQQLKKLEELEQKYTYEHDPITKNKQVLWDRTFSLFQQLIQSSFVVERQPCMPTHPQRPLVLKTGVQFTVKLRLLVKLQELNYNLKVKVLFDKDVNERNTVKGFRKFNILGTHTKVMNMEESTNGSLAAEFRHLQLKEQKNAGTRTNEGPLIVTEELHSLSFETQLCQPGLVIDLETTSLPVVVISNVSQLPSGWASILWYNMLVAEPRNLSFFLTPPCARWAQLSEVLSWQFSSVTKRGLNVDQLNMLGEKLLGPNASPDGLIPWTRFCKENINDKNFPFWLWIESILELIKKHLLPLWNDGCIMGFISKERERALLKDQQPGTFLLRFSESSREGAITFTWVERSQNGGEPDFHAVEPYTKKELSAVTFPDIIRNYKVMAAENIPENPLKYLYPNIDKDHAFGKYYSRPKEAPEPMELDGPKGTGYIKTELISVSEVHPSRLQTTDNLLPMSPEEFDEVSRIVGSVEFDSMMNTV
Metric name: IC50

1) O=C(CNc1ccc(C(=O)Nc2ccc(Oc3ccccc3)cc2)cc1)NCc1cc(C(F)(F)P(=O)(O)O)c(F)c(C(F)(F)P(=O)(O)O)c1 = 53.8 µM
2) O=C(CNc1ccc(C(=O)Nc2ccc(Oc3ccccc3)cc2)cc1)NCc1cc(OP(=O)(O)O)cc(OP(=O)(O)O)c1 = 70.4 µM
